Please provide measured NADPH fluorescence slope for the entries that follow.
# study.target: Voltage-gated potassium channel subunit beta-2 (Rattus norvegicus) (UniProt P62483)
# Sequence (P62483 whole entry, looked up): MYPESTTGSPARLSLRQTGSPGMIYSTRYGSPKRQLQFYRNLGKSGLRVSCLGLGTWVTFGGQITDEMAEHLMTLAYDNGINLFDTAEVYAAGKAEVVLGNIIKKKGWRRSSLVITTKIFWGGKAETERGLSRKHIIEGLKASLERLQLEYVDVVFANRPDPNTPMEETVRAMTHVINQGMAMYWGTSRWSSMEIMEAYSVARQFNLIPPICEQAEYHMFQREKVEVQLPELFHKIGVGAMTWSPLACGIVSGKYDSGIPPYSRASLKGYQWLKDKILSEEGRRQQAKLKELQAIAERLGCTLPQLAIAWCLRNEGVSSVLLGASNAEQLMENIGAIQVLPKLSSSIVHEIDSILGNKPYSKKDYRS
# assay.explanation: enhancers of rat Kvbeta2 NADPH turnover – biochemical, NADPH fluorescence, primary screen (AID 623);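 also: fluorescence intensity change per second fitted from 20 to 320 s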
# condition.details: Recombinant KvBeta, NADPH fluorescence decrease slope, 10 min; at 10 µM; stronger effect = lower value
One number for each entry.

Example cases with answers are listed next.
| compound | recorded.measurement |
| --- | --- |
| CCOC(=O)Nc1cc(OCC)c(NC(=O)C2CC2)cc1OCC | -4.7e-05 |
| COC(=O)c1c(-c2ccc(F)cc2)noc1N | -6.3e-06 |
| O=c1c2ccccc2nnn1CSc1nc2cc(Cl)ccc2c(=O)n1Cc1ccco1 | -5e-05 |
| CC1CCN(S(=O)(=O)c2ccc(NC(=O)CSc3nnnn3C)cc2)CC1 | -3.1e-05 |
| COc1cccc(OC)c1C(=O)Nc1cccc(C(C)=O)c1 | -1.1e-05 |
| CCc1c(C)nc(N2CCN(Cc3ccccc3)CC2)[nH]c1=O | 2.9e-05 |
| CC(C)(C)n1nnnc1C(c1cccc(C#N)c1)N1CCC(Cc2ccccc2)CC1 (stereo unspecified) | -3.4e-05 |
| COc1cc(CC(=O)Nc2ncc(C)s2)cc(OC)c1OC | 7.8e-05 |
| O=C(CP(=O)(CO)CO)c1ccc(Cl)cc1 | 4.7e-05 |
| CN(C)C(=O)CN(c1ccc(F)c(Cl)c1)S(C)(=O)=O | -8.3e-05 |

State recorded NADPH fluorescence slope for all listed compounds.
1. Cn1c(=O)c2c(nc(SCC(=O)O)n2Cc2cccc(C(F)(F)F)c2)n(C)c1=O
2. CC(=O)N(c1ccc(N(C(C)=O)S(=O)(=O)c2cccs2)cc1)S(=O)(=O)c1cccs1
3. Cc1nc(SCC(=O)c2c[nH]c3ccccc23)n[nH]1
4. CCOc1ccc(C2/C(=C(/O)c3ccccc3)C(=O)C(=O)N2CCCN(C)C)cc1OC (stereo unspecified)

Ans.
6.2e-06
-0.000256
-6.1e-05
-4.1e-05

----------
Please provide measured fluorescence slope for the entries that follow.
# study.target: Voltage-gated potassium channel subunit beta-2 (Rattus norvegicus) (UniProt P62483)
# assay.explanation: inhibitors of rat Kvbeta2 reductase activity – biochemical, NADPH fluorescence, primary screen (AID 622);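 also: slope of raw intensity against log time taken from 70 to 1610 s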
# condition.details: recombinant KvBeta, 4-cyanobenzaldehyde reduction, at 10 µM, stronger effect = higher value
Answers are plain numbers.

Example cases with answers are listed next.
| compound | recorded.measurement |
| --- | --- |
| CCN(CC)C(=O)C1=C(C)NC(=O)NC1c1c(F)cccc1Cl (centres undefined) | -0.521 |
| CC(=O)c1c(C)[nH]c(C(=O)NCc2cccs2)c1C | -0.561 |
| COc1cccc(-c2cc(C(=O)Nc3cc(C)n(Cc4ccc(Cl)cc4)n3)no2)c1 | -0.211 |
| COc1ccccc1C(=O)Nc1ccc(N2CCN(S(C)(=O)=O)CC2)cc1 | -0.242 |
| N#CC(C(=O)CCN1C(=O)C2CC=CCC2C1=O)c1nc2ccccc2[nH]1 (centres undefined) | -0.524 |

State recorded fluorescence slope for all listed compounds.
1. CCCN(CCC)CCNC(=O)C(NS(=O)(=O)c1ccc2c(c1)CCC(=O)N2)c1ccccc1 (centres undefined)
2. CC1(C)CC(=O)C=C(N=CC2=C(O)CC(C)(C)CC2=O)C1
3. NS(=O)(=O)c1cc2c(cc1Cl)NCNS2(=O)=O
4. CC(CN1CCOCC1)(NS(=O)(=O)c1ccccc1)c1ccccc1 (centres undefined)
5. Cc1cc(C2C(C#N)=C(N)SC(N)=C2C#N)c(C)s1
6. COc1ccccc1NC(=O)N1CCCC1C(=O)NC1CCCCC1 (centres undefined)

Ans.
[-0.555, -0.363, -0.428, -0.576, -0.573, -0.227]

----------
# study.target: Voltage-gated potassium channel subunit beta-2 (Rattus norvegicus) (UniProt P62483)
# assay.explanation: inhibitors of rat Kvbeta2 reductase activity – biochemical, NADPH fluorescence, primary screen (AID 622);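 also: slope of raw intensity against log time taken from 70 to 1610 s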
# condition.details: recombinant KvBeta, 4-cyanobenzaldehyde reduction, at 10 µM, stronger effect = higher value
Please provide measured fluorescence slope for the entries that follow.
Give bare numbers.

Example cases with answers are listed next.
| compound | study.target | fluorescence slope |
| --- | --- | --- |
| C=CCOC(=O)C(C#N)c1nc2ccccc2nc1N1CCN(Cc2ccccc2)CC1 (stereo not given) | Voltage-gated potassium channel subunit beta-2 (Rattus norvegicus) (UniProt P62483) | -0.402 |
| O=C(C1CCC1)N1CCc2cc(S(=O)(=O)N3CCc4ccccc4C3)ccc21 | Voltage-gated potassium channel subunit beta-2 (Rattus norvegicus) (UniProt P62483) | -0.411 |
| Cc1ccc(NC(=O)Nc2ccc3c(c2)N(C)C(=O)CS3)nc1 | Voltage-gated potassium channel subunit beta-2 (Rattus norvegicus) (UniProt P62483) | -0.395 |
| CCc1nc(N[C@@H](Cc2c[nH]c3ccccc23)C(=O)O)c2oc3ccccc3c2n1 | Voltage-gated potassium channel subunit beta-2 (Rattus norvegicus) (UniProt P62483) | -0.4 |

Shifting focus to the compound that follows.
Qu. Quickly give me recorded fluorescence slope for COC(=O)c1nn(-c2ccc(-c3ccccc3)cc2)cc1O
Ans. -0.493

----------
# assay.explanation: endothelial E-selectin expression blockers – imaging, HUVEC, immunofluorescence, MLSMR starter and 10KST1 sets, primary screen (AID 487);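 also: 100% = median nuclei count of all wells on the same plate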
# condition.details: HUVEC TNFalpha-induced E-selectin immunofluorescence imaging, at 2 µM; measured here: cell number, toxicity
Please provide measured nuclei count for the entries that follow.
Entry format: amount then unit.

Example cases with answers are listed next.
| molecule | nuclei count |
| --- | --- |
| COc1cccc(OCc2nc3c4cnn(-c5ccccc5)c4ncn3n2)c1 | 110% |
| COC(=O)Cn1cc(C(=O)c2cccs2)c2ccccc21 | 70.5% |
| CC(C)(C)c1cc(C(=S)N2CCN(CCO)CC2)cc(C(C)(C)C)c1O | 128% |

Qu. Quickly give me recorded nuclei count for CCn1cc(C2=NOC(C(=O)Nc3cc(C)nn3-c3ccccc3)C2)c(C)n1 (centres undefined)
Ans. 84.5%

----------
# assay.explanation: endothelial E-selectin expression blockers – imaging, HUVEC, immunofluorescence, MLSMR starter and 10KST1 sets, primary screen (AID 487);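 also: 100% = median nuclei count of all wells on the same plate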
# condition.details: HUVEC TNFalpha-induced E-selectin immunofluorescence imaging, at 2 µM; measured here: cell number, toxicity
Please provide measured nuclei count for the entries that follow.
Numbers only, in %.

Example cases with answers are listed next.
| compound | nuclei count / % |
| --- | --- |
| COCc1[nH]nc2c1C(C1C=CCCC1)C(C#N)=C(N)O2 (stereo unspecified) | 120 |
| COc1cc(NC(=O)c2cc(OC)c(OC)c(OC)c2)c(OC)cc1NC(=O)CN1CCCCC1 | 115 |
| Cn1cc(C(=O)NC2CCCCCCC2)c(=O)c2cc(S(=O)(=O)N3CCCC3)ccc21 | 106 |
| COc1cccc(-c2cc(C(=O)Nc3c(C)nn(Cc4ccccc4)c3C)no2)c1 | 87 |
| COc1cccc(N2CCN(c3c4c(nc5ncnn35)CCC4)CC2)c1 | 109 |
| COc1ccccc1-c1c(C)nn2c(C)c(C(C)=O)cnc12 | 81.4 |
| Cc1nn(-c2ccccc2)c(Cl)c1C1C(C#N)=C(N)OC2=C1C(=O)CC(C)(C)C2 (stereo unspecified) | 113 |
| COc1ccccc1-c1noc(-c2ccco2)n1 | 101 |

State recorded nuclei count for all listed compounds.
1. O=C(Nc1ccc(CN2CCCCC2)cc1)c1ccc2c(c1)OCO2
2. CCC(c1nnnn1CCOC)N(Cc1ccc(C)cc1)Cc1cc2cc(OC)ccc2[nH]c1=O (stereo unspecified)
3. Cc1occc1C(=O)Nc1ccccc1NC(=O)c1ccoc1C

Ans.
1: 73.6; 2: 134; 3: 90.2

----------
Please provide measured NADPH fluorescence slope for the entries that follow.
# study.target: Voltage-gated potassium channel subunit beta-2 (Rattus norvegicus)
# assay.explanation: enhancers of rat Kvbeta2 NADPH turnover – biochemical, NADPH fluorescence, primary screen (AID 623);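 also: fluorescence intensity change per second fitted from 20 to 320 s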
# condition.details: Recombinant KvBeta, NADPH fluorescence decrease slope, 10 min; at 10 µM; stronger effect = lower value
Numbers only.

Example cases with answers are listed next.
| molecule | recorded.measurement |
| --- | --- |
| CCCOc1cccc(CN2CCCCC2c2cccnc2)c1 (stereo not drawn) | 1.8e-06 |
| O=c1c2ccccc2sn1-c1ccc(S(=O)(=O)N2CCCCC2)cc1 | -1.7e-05 |
| O=C1CC(c2ccc(Cl)cc2)n2nc(N3C(=O)c4ccccc4C3=O)nc2N1 (stereo not drawn) | -3.9e-05 |
| CCCCCn1c(=O)[nH]c2cc(C(=O)NCCCN3CCCCC3)ccc2c1=O | -5.4e-05 |
| Cc1ccccc1NC(=O)c1ccc(NC(=O)c2ccco2)cc1 | -2.6e-05 |

State recorded NADPH fluorescence slope for all listed molecules.
1. CC(C)c1ccc(S(=O)(=O)N2CCN(C(=O)c3cccc(F)c3)CC2)cc1
2. COc1ccc(OCc2nc(N)nc(Nc3cccc(C)c3C)n2)cc1
3. CCCC(C(=O)NCc1ccco1)N(C(=O)CNS(=O)(=O)c1ccc(Cl)cc1)C1CCCC1 (stereo not drawn)

Ans.
1: 0.000166; 2: -1e-06; 3: -1.1e-05
